Data origin: ChEMBL document CHEMBL2086252

tested on: Mus musculus; test: Anticonvulsant activity in albino CF1 mouse assessed as protection against maximal electroshock-induced seizures at 300 mg/kg, ip after 0.5 hrs; assay type: functional, organism-based; parameters: dose 300 mg/kg
Activity calls are given as the source filed them. No cut-off for these calls is given here.
// one of YES (active), NO (inactive), no free text

CCCC(CCC)COC(=O)NC1CCCCC1 ... NO
CCCC(COC(N)=O)C(C)CC (racemic) ... YES
CCC(C)C(CC)COC(N)=O (racemic) ... YES
CC1(C)C(COC(N)=O)C1(C)C ... YES
CCC(C)C(COC(N)=O)C(C)C (racemic) ... YES

Shift focus to the following entry.
Asked: Which outcome did this test record for the compound CCCCC(CC)COC(N)=O (racemic) ?
Given back: YES
